Data credit: the supplement of paper PMC13380429

tested on: HepG2; assay: cell viability relative to DMSO; higher = less toxic; conditions: 72 h; 10000 nM
Value Kind: cell viability (%)
Give the value in % but do not write % after it.

Provide value of cell viability for this record tested with HepG2: `C[C@H](N)C(=O)N[C@@]1(C(=O)O)C[C@@H](Sc2nnc[nH]2)[C@H]2[C@H](C(=O)O)[C@H]21` 91

Tell me reported cell viability for `COC(=O)c1ccc2c(c1)NC(=O)/C2=C(\Nc1ccc(N(C)C(=O)CN2CCN(C)CC2)cc1)c1ccccc1` , tested with HepG2. 80.3

Quick check: cell viability on HepG2, item `FC(F)(F)Oc1ccc2nc(-c3ccc(OCCOCCOc4ccc(-c5nc6ccc(OC(F)(F)F)cc6[nH]5)nc4)cn3)[nH]c2c1` ? 18.7

Param readout = cell viability; param system = HepG2; param query = `Nc1nc(NCCc2ccc(O)cc2)nc2nc(-c3ccco3)nn12` ; response: value 32.2

Fill in the recorded cell viability for this compound, with HepG2 as test system: CC1CCc2c(N3CCC(O)CC3)c(F)cc3c(=O)c(C(=O)O)cn1c23 (stereo not drawn) 107

Query for HepG2: what cell viability does the record show for `N[C@@H](CSCCCO)C(=O)O` ? 105

Given the entry `CC(=O)c1ccc(NS(C)(=O)=O)c(Oc2ccc(F)cc2F)c1` , what cell viability was observed with HepG2? 87.3

Under HepG2: cell viability value of `CNC(=O)c1cc(Oc2ccc(NC(=O)Nc3ccc(Cl)c(C(F)(F)F)c3)cc2)ccn1` ? 12.7

Under HepG2: cell viability value of O=C(c1ccc(Cl)o1)N1CC2CNCC2C1 (stereo not drawn) ? 88

API: value(readout= cell viability, system= HepG2, query= `Nc1ccn([C@H]2CO[C@@H](CO)S2)c(=O)n1` ) 103

HepG2 / cell viability / `c1ccc(-c2oc3ncnc(NC[C@@H]4CCCO4)c3c2-c2ccccc2)cc1` : value? 95.6

# value lookup — system HepG2, readout cell viability, item `CC1(C)S[C@@H]2[C@H](NC(=O)[C@H](NC(=O)N3CCNC3=O)c3ccccc3)C(=O)N2[C@H]1C(=O)O` 88

Lab request: please report cell viability under test system HepG2 for `CS(=O)(=O)c1ccc([C@@H](CC2CCCC2)C(=O)Nc2nccs2)cc1` 103

Entry `Cc1[nH]cnc1-c1ccc(Cl)cc1` , system HepG2: what cell viability was measured? 107

Give the reported cell viability for `CCC[C@H](NC(=O)/C(C#N)=C/c1cccc(Br)n1)c1ccccc1` (system: HepG2). 0.8

API: value(readout=cell viability, system=HepG2) for record `CCCNC(=O)Nc1ccc(Oc2ncnc3cc(OC)c(OC)cc23)cc1Cl` 94.5

Provide value of cell viability for this record tested with HepG2: `Fc1ccc(-c2nc(-c3c(F)cccc3F)[nH]c2-c2ccncc2)cc1` 98.4

Quick check: cell viability on HepG2, item `O=C(Nc1cc(Oc2cc(F)c(NC(=O)C3(C(=O)Nc4ccc(F)cc4)CC3)cc2F)ccn1)C1CC1` ? 58.5

---

tested on: Vero E6; assay: cell viability relative to DMSO; higher = less toxic; settings: 72 h; 10000 nM
Value Kind: cell viability (%)
Number only, in %; omit the unit.

# returns recorded cell viability (system: Vero E6) for C[C@@]1(O)[C@H](O)[C@@H](CO)O[C@H]1n1ccc(N)nc1=O [NM107] 113

// fetch Vero E6 cell viability for Cc1csc(-c2nnc(Nc3ccc(Oc4ncccc4-c4ccnc(N)n4)cc3)c3ccccc23)c1 [AMG900] 75.8

Item: `O=C(O)[C@H]1CC[C@H](c2cc3cccnc3c(-c3cccc(F)c3)n2)CC1` Test system: Vero E6 Read-out: cell viability Value: ? 86.3

Give cell viability (Vero E6) of the following compound: `CN(C)c1cccc(-c2c3c(=O)n(-c4ccccc4Cl)[nH]c3cc(=O)n2C)c1` 104

Any idea what cell viability came out for N#CCNC(=O)c1ccc(-c2ccnc(Nc3ccc(N4CCOCC4)cc3)n2)cc1 [cyt387] on Vero E6? 52.5

API: value(readout= cell viability, system= Vero E6, query= O=C(O)CSCC(=O)NC1CCSC1=O (stereo unspecified) [erdosteine] ) 96.8

Provide the documented cell viability with Vero E6 as the system for Cc1c(F)cc(C(=O)NC2CC2)cc1-c1ccc(C(=O)NCC(C)(C)C)cn1 [losmapimod] 80.5

For Vero E6, provide cell viability of CCOC(=O)c1ccccc1OC(=O)CCCCCCCC(=O)Oc1ccccc1C(=O)OCC [TU-2100] please. 99.9

Test system Vero E6; read-out cell viability; what value for Cn1c(NC[C@@H](N)Cc2ccccc2)nc(-c2ccncc2)c(-c2ccc3ccccc3c2)c1=O [AMG-548] ? 97.2

Lab note: need cell viability with Vero E6 for entry CC(C)C[C@H](NC(=O)[C@@H]1CCCN1)C(=O)NCC(N)=O [prolylleucylglycinamide] , please look it up. 98.2

For Vero E6, provide cell viability of `COC(=O)[C@H](Cc1ccc([N+](=O)[O-])cc1)NC(=O)c1cccc2ccccc12` please. 101

Short answer please: cell viability, Vero E6, entry CCCCCCCCNC(=O)/C(C#N)=C/c1cn(CCCN(C)C)c2ccccc12 [dynole-34-2] 91.2

Form field: cell viability recorded for Cn1c(Nc2ccc(C(F)(F)F)cc2)nc2cc(Oc3ccnc(-c4ncc(C(F)(F)F)[nH]4)c3)ccc21 [RAF265] with Vero E6 (enter value) 51.6

Recall the recorded cell viability for CCc1c(C(=O)Nc2cc(S(=O)(=O)N(CC)CC)ccc2O)[nH]c(C)c1C(C)=O [XD-14] with Vero E6 and state it. 95.9

Notebook entry, Vero E6 assay: cell viability of Cc1cc(Nc2ncc(Cl)c(Nc3ccccc3S(=O)(=O)C(C)C)n2)c(OC(C)C)cc1C1CCNCC1 [ceritinib] = ? 17

Request - read-out cell viability | tested on Vero E6 | compound Cc1ccccc1NC(=O)Nc1ccc(CC(=O)N(C)[C@@H](CC(C)C)C(=O)NCC[C@H](NC(=O)[C@@H]2CCCN2S(=O)(=O)c2cc(Cl)cc(Cl)c2)C(=O)O)cc1 [BIO-5192] 109

Any idea what cell viability came out for COc1cc(C(=O)N2CCOCC2)cc(OC)c1OC [trimetozine] on Vero E6? 99.9

Give the reported cell viability for Cc1cc(Cl)ccc1OCCCC(=O)NO [droxinostat] (system: Vero E6). 86.7

Request body: readout cell viability, system Vero E6, query Nc1ccc2cc3ccc(N)cc3nc2c1 [proflavine-hemisulfate] . Return the value. 35.8

Please tell me: cell viability of CC[N+]1(C)CCCC(OC(=O)C(O)(c2ccccc2)c2ccccc2)C1 (stereo unspecified) [pipenzolate] , system Vero E6? 96.7

Give Vero E6 cell viability for Cc1cc(O)c(C(=O)N[C@@H](C(=O)N[C@@H]2C(=O)N3C(C(=O)O)=C(CSc4nnnn4C)CS[C@H]23)c2ccc(O)cc2)cn1 [cefpiramide] 96.3

Test system Vero E6; read-out cell viability; what value for Oc1cc(O)c2c(c1)O[C@H](c1ccc(O)c(O)c1)[C@H](O)[C@H]2c1c(O)cc(O)c2c1O[C@H](c1ccc(O)c(O)c1)[C@H](O)C2 [procyanidin-B-2] ? 93.4

Provide the documented cell viability with Vero E6 as the system for CC(C)(O)CC(=O)NCCn1ccc2ncnc(Nc3ccc(Oc4cccc(C(F)(F)F)c4)c(Cl)c3)c21 [TAK-285] 37.8

Which measured cell viability belongs to `COCc1nnc(N2CC(Oc3ccc(F)cc3Cl)C2)n1-c1ccc(OC)nc1` , tested on Vero E6? 106

Find the measured cell viability: item `CC[C@H](C)n1cc(C)c2c(C(=O)NCc3c(C)cc(C)[nH]c3=O)cc(-c3ccc(N4CCNCC4)nc3)cc21` , target or system Vero E6. 98.7

Give cell viability (Vero E6) of the following compound: CN1CCN2c3c(cccc31)[C@@H]1CN(CCCC(=O)c3ccc(F)cc3)CC[C@@H]12 [lumateperone] 97.3

Enter reported cell viability observed with Vero E6 for CC(O)CN1CCN(CC(=O)[O-])CCN(CC(=O)[O-])CCN(CC(=O)[O-])CC1.[Gd+3] (stereo unspecified) [gadoteridol] 105

Request body: readout cell viability, system Vero E6, query CN1CCC2=C(C1)C(c1ccccc1)c1ccccc12 (stereo unspecified) [phenindamine] . Return the value. 97.2

Recorded cell viability for `CCCCOc1c(C(=O)c2c(F)cc(C)cc2F)c[nH]c2nncc1-2` with Vero E6, please? 84.9

Return cell viability measured with Vero E6 given this compound: COc1ccc(Cc2nccc3cc(OC)c(OC)cc23)cc1OC [papaverine] 90.1

Recorded cell viability for CC/C(=C(/c1ccc(/C=C/C(=O)O)cc1)c1ccc2[nH]ncc2c1)c1ccc(F)cc1Cl [GDC-0810] with Vero E6, please? 90.6

Find the measured cell viability: item CN(C)CCN(Cc1cccs1)c1ccccn1 [methapyrilene] , target or system Vero E6. 96.3

Test system Vero E6; read-out cell viability; what value for CCc1nc(C(N)=O)c(Nc2ccc(N3CCC(N4CCN(C)CC4)CC3)c(OC)c2)nc1NC1CCOCC1 [gilteritinib] ? 37.2

Requested read-out cell viability, target or system Vero E6, entry Cc1ccccc1C(=O)Nc1ccc(C(=O)N2CCCC(N(C)C)c3ccccc32)cc1 (stereo unspecified) [mozavaptan] 51.6

Notebook: pull reported cell viability for Vero E6, entry CCCCCCCCCCCCCCCCCCCCCCCCCCCCO [1-octacosanol] 104

Record C=CCNC1=C2C[C@@H](C)C[C@H](OC)[C@H](O)[C@@H](C)/C=C(\C)[C@H](OC(N)=O)[C@@H](OC)/C=C\C=C(/C)C(=O)NC(=CC1=O)C2=O [tanespimycin] : what is its cell viability with Vero E6? 26.5
